# ASSAY_TARGET: UniProt:P13569
# Sequence (P13569 whole entry, looked up): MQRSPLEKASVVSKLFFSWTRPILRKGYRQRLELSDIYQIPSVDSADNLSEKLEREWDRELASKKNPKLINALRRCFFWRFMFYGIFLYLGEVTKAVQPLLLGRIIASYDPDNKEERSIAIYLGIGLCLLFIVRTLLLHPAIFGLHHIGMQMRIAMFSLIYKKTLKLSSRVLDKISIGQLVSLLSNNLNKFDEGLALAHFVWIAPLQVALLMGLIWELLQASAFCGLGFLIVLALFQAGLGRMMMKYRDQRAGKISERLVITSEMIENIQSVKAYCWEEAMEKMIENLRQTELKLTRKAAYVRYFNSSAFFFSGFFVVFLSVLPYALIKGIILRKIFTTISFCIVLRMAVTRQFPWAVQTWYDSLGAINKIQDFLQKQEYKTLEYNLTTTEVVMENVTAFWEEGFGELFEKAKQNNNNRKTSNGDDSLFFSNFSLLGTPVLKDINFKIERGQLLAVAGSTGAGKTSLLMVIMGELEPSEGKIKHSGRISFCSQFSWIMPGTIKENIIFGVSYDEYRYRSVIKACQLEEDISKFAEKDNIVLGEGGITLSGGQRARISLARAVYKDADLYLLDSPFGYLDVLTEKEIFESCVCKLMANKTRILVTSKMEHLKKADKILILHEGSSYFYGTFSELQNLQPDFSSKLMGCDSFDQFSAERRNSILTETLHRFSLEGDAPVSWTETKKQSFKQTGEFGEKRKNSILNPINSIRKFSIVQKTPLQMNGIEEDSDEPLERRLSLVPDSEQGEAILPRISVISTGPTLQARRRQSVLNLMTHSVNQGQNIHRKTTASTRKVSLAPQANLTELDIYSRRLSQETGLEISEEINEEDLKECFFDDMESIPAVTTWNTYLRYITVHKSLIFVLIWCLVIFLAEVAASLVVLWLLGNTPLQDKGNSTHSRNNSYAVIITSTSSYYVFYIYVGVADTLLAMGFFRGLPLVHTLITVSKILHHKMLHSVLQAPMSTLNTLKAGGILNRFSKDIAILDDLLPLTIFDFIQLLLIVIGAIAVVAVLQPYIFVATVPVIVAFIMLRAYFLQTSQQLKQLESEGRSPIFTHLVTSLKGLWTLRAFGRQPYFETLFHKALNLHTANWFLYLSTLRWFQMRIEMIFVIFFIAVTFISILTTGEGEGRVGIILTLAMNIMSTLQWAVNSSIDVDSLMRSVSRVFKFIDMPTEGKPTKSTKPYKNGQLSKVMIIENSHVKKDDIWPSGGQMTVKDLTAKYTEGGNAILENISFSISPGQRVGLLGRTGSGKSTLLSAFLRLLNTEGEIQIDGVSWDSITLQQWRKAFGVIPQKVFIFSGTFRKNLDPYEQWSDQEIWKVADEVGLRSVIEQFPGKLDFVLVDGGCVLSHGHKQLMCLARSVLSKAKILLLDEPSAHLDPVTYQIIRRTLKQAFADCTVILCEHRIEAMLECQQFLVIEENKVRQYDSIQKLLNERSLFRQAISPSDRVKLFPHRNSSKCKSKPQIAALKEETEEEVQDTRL
# METHOD_SUMMARY: Percent activation of wild type CFTR dependent efflux was determined by measuring the rate of iodide [125I]- efflux from transfected CHO cells
# Type: functional, cell-based
# Set-up: concentration or dose not given beside the values
REPORTED_ENDPOINT: Activation (%)
One number for each entry, in %.

Consider the following illustrative entries.
Noted for `C=C[C@@]1(C)CC(=O)[C@]2(O)[C@@]3(C)[C@@H](O)CCC(C)(C)[C@@H]3[C@H](O)[C@H](OC(C)=O)[C@@]2(C)O1` : its Activation reads 100

Noted for `CCOC(=O)c1c(O)c2ccc(F)cc2[n+]2ccccc12` : its Activation reads 6

Please give Activation, item by item, for the list that follows.
1. Nc1cc2[n+](c3c(Cl)cccc13)CCc1c-2[nH]c2ccccc12
2. Oc1cc2cccc[n+]2c2cccc(Cl)c12

46
20

Noted for `CCOC(=O)c1c(O)c2c(F)cccc2[n+]2ccccc12` : its Activation reads 8
